molecular target: Nuclear receptor ROR-gamma (Mus musculus); assay: qHTS for inhibitors of ROR gamma transcriptional activity; conditions: Drosophila S2 Gal4-RORgamma UAS-luciferase reporter, 20 h; series mostly up to 53.6 µM; note: nearly all actives have a fitted effect of over 60% in size
In all, about 310,000 compounds went through this assay and about 17,000 (5.5%) were called active. Not shown: some 11% with an inconclusive outcome. Calls come from the whole dose curve; as a rule, active = well fitted inhibition curve with a large enough effect; inconclusive = small, poorly fitted or top-dose-only effect, or effect the other way; inactive = no such curve, though single readings can be large or run the other way. What follows is part of a selection rich in actives, with near analogues and random picks from the rest.
Possible outcomes: yes (1) = active, no (0) = inactive

{"smiles_code": "C[C@@H](NC(=O)[C@@H]1Cc2ccccc2CN1)C(=O)NC1CCCC1", "system_name": "Nuclear receptor ROR-gamma (Mus musculus)", "class_label": "no (0)"}
{"smiles_code": "Cc1ccc(S(=O)(=O)c2nc(-c3cccs3)oc2NCc2cccnc2)cc1", "system_name": "Nuclear receptor ROR-gamma (Mus musculus)", "class_label": "no (0)"}
{"smiles_code": "COc1ccc(CN(C)C(=S)Nc2ccc(Cl)cc2Cl)cc1", "system_name": "Nuclear receptor ROR-gamma (Mus musculus)", "class_label": "yes (1)"}
{"smiles_code": "COc1cccc(C(=O)Nc2nnc(S(=O)(=O)N(C)c3ccccc3)s2)c1", "system_name": "Nuclear receptor ROR-gamma (Mus musculus)", "class_label": "no (0)"}
{"smiles_code": "COc1ccc(/C=N/NC(=O)c2ccc(Cl)cc2)cc1COC(C)=O", "system_name": "Nuclear receptor ROR-gamma (Mus musculus)", "class_label": "no (0)"}
{"smiles_code": "COc1ccc(CN2CCn3ncc(C(=O)Nc4ccc(Cl)cc4Cl)c3C2=O)cc1", "system_name": "Nuclear receptor ROR-gamma (Mus musculus)", "class_label": "no (0)"}
{"smiles_code": "COc1ccc(CN2CN(C3CCCC3)CSC2=S)cc1", "system_name": "Nuclear receptor ROR-gamma (Mus musculus)", "class_label": "yes (1)"}
{"smiles_code": "CN(C)C(=S)Nc1ccc(Br)cc1Cl", "system_name": "Nuclear receptor ROR-gamma (Mus musculus)", "class_label": "no (0)"}
{"smiles_code": "CCc1ccc(NC(=O)C(=O)NNC(=O)c2cccs2)cc1", "system_name": "Nuclear receptor ROR-gamma (Mus musculus)", "class_label": "no (0)"}
{"smiles_code": "COc1cccc(NC(=O)c2ccc(S(=O)(=O)N(C)C)cc2)c1", "system_name": "Nuclear receptor ROR-gamma (Mus musculus)", "class_label": "no (0)"}
{"smiles_code": "Cc1cc(C)c2c(-c3ccc(F)cc3)c(C#N)c(=O)n(C)c2n1", "system_name": "Nuclear receptor ROR-gamma (Mus musculus)", "class_label": "no (0)"}
